target: KAT8 (lysine acetyltransferase 8) (Homo sapiens, UniProt Q9H7Z6); experiment: enzyme kinetics of KAT8 HAT activity, fluorescent detection of CoASH; format: biochemical
Sequence (Q9H7Z6 2-458): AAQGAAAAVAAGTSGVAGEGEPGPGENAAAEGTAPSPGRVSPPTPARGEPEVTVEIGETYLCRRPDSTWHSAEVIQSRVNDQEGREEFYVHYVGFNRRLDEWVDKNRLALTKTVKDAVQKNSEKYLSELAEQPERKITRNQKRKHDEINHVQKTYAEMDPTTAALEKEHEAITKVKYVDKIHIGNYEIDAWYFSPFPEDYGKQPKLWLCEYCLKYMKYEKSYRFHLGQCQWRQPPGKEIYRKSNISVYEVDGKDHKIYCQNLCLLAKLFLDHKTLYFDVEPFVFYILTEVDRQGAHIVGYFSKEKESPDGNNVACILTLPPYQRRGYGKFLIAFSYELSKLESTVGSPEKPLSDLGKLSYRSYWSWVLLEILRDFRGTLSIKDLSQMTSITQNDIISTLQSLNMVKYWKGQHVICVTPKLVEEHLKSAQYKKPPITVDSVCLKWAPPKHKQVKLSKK
measured metric: Ki (µM)
Answers are plain numbers, in µM.

So for `CCCCCCCc1ccc(CCc2cccc(O)c2C(=O)O)cc1` , the logged Ki turned out to be 39
